Origin of values: ChEMBL document CHEMBL3286271

tested on: PC-3; assay: Cytotoxicity against human PC3 cells assessed as growth inhibition at 50 uM after 48 hrs by SRB method; format: functional; details: PC-3, 48 h, read-out: GI
Returns one of YES or NO; YES when inhibition of growth at 50 µM is >= 30%.

CC(=O)C1=CC[C@H]2[C@@H]3CC(=O)C4=C[C@@H](OC(=O)Nc5ccc(F)cc5)CC[C@]4(C)[C@H]3CC[C@]12C :: YES
CC(=O)C1=CC[C@H]2[C@@H]3CC(=O)C4=C[C@@H](OC(=O)Nc5ccccc5)CC[C@]4(C)[C@H]3CC[C@]12C :: NO
CC(=O)[C@@]1(O)CC[C@H]2[C@@H]3C=CC4=CC(=O)CC[C@]4(C)[C@H]3CC[C@@]21C :: YES

Problem: Could you verify whether the entry `CC(=O)[C@@]1(OC(=O)Nc2ccc(F)cc2)CC[C@H]2[C@@H]3C=CC4=CC(=O)CC[C@]4(C)[C@H]3CC[C@@]21C` shows inhibition of growth at 50 µM of no less than 30%?
Result: YES

---

tested on: PC-3; assay: Cytotoxicity against human PC3 cells assessed as growth inhibition at 50 uM after 48 hrs by SRB method; format: functional; settings: PC-3, 48 h, read-out: GI
Measured inhibition of growth at 50 µM accompanies every entry in the list below.
Note: unit % is implicit; provide only the numeric part.

CC(=O)C1=CC[C@H]2[C@@H]3CC(=O)C4=C[C@@H](OC(=O)c5ccc(I)cc5)CC[C@]4(C)[C@H]3CC[C@]12C :: 64.1
CC(=O)C1=CC[C@H]2[C@@H]3CC(=O)C4=C[C@@H](OC(=O)Nc5ccc(I)cc5)CC[C@]4(C)[C@H]3CC[C@]12C :: 42.8
CC(=O)[C@@]1(OC(=O)c2ccccc2)CC[C@H]2[C@@H]3C=CC4=CC(=O)CC[C@]4(C)[C@H]3CC[C@@]21C :: 42.5
CC(=O)C1=CC[C@H]2[C@@H]3CC(=O)C4=C[C@@H](OC(=O)Nc5ccc(Br)cc5)CC[C@]4(C)[C@H]3CC[C@]12C :: 26.9

// next item, inhibition of growth at 50 µM requested
Problem: Check the records and state inhibition of growth at 50 µM for `CC(=O)[C@@]1(OC(=O)c2ccc(Cl)cc2)CC[C@H]2[C@@H]3C=CC4=CC(=O)CC[C@]4(C)[C@H]3CC[C@@]21C`
Result: 46.1

---

test: Cytotoxicity against human HCT15 cells assessed as growth inhibition at 50 uM after 48 hrs by SRB method; assay type: functional; conditions: HCT-15, 48 h, read-out: GI
Measured inhibition of growth at 50 µM accompanies every entry in the list below.
Note: unit % is implicit; provide only the numeric part.

CC(=O)[C@@]1(OC(=O)c2ccccc2)CC[C@H]2[C@@H]3C=CC4=CC(=O)CC[C@]4(C)[C@H]3CC[C@@]21C :: 50.8

Problem: Check the records and state inhibition of growth at 50 µM for CC(=O)N1CCN(c2ccc(OCC3COC(Cn4ccnc4)(c4ccc(Cl)cc4Cl)O3)cc2)CC1 (centres undefined)
Result: 90.6

Problem: Check the records and state inhibition of growth at 50 µM for `CC(=O)[C@@]1(OC(=O)c2ccc(Cl)cc2)CC[C@H]2[C@@H]3C=CC4=CC(=O)CC[C@]4(C)[C@H]3CC[C@@]21C`
Result: 39.3

Problem: Check the records and state inhibition of growth at 50 µM for `CC(=O)C1=CC[C@H]2[C@@H]3CC(=O)C4=C[C@@H](OC(=O)Nc5ccccc5)CC[C@]4(C)[C@H]3CC[C@]12C`
Result: 41.4

Problem: Check the records and state inhibition of growth at 50 µM for `CC(=O)C1=CC[C@H]2[C@@H]3CC(=O)C4=C[C@@H](OC(=O)Nc5ccc(Cl)cc5)CC[C@]4(C)[C@H]3CC[C@]12C`
Result: 65.3

Problem: Check the records and state inhibition of growth at 50 µM for `CC(=O)C1=CC[C@H]2[C@@H]3CC(=O)C4=C[C@@H](OC(=O)Nc5ccc(I)cc5)CC[C@]4(C)[C@H]3CC[C@]12C`
Result: 43.2

Problem: Check the records and state inhibition of growth at 50 µM for `CC(=O)[C@@]1(OC(=O)Nc2ccccc2)CC[C@H]2[C@@H]3C=CC4=CC(=O)CC[C@]4(C)[C@H]3CC[C@@]21C`
Result: 45.3

Problem: Check the records and state inhibition of growth at 50 µM for `CC(=O)C1=CC[C@H]2[C@@H]3CC(=O)C4=C[C@@H](OC(=O)c5ccccc5)CC[C@]4(C)[C@H]3CC[C@]12C`
Result: 48.7

Problem: Check the records and state inhibition of growth at 50 µM for `CC(=O)[C@@]1(O)CC[C@H]2[C@@H]3C=CC4=CC(=O)CC[C@]4(C)[C@H]3CC[C@@]21C`
Result: 25

Problem: Check the records and state inhibition of growth at 50 µM for `CC(=O)[C@@]1(OC(=O)c2ccc(I)cc2)CC[C@H]2[C@@H]3C=CC4=CC(=O)CC[C@]4(C)[C@H]3CC[C@@]21C`
Result: 27.5

---

assay: Cytotoxicity against mouse J774 cells assessed as growth inhibition at 50 uM after 48 hrs by SRB method; format: cell-based; conditions: read-out: GI
Consider the following partition of reported inhibition at 48 h, 50 µM into named classes: LOW = under 50%, MID = from 50% up to 70%, HIGH = 70% and over

These solved cases illustrate the format of a correct answer.
CC(=O)C1=CC[C@H]2[C@@H]3CC(=O)C4=C[C@@H](OC(=O)Nc5ccc(Br)cc5)CC[C@]4(C)[C@H]3CC[C@]12C :: HIGH
CC(=O)N1CCN(c2ccc(OCC3COC(Cn4ccnc4)(c4ccc(Cl)cc4Cl)O3)cc2)CC1 (stereo not drawn) :: MID
CC(=O)C1=CC[C@H]2[C@@H]3CC(=O)C4=C[C@@H](OC(=O)c5ccc(I)cc5)CC[C@]4(C)[C@H]3CC[C@]12C :: MID
CC(=O)[C@@]1(OC(=O)c2ccccc2)CC[C@H]2[C@@H]3C=CC4=CC(=O)CC[C@]4(C)[C@H]3CC[C@@]21C :: HIGH
CC(=O)[C@@]1(OC(=O)Nc2ccc(Cl)cc2)CC[C@H]2[C@@H]3C=CC4=CC(=O)CC[C@]4(C)[C@H]3CC[C@@]21C :: LOW
CC(=O)C1=CC[C@H]2[C@@H]3CC(=O)C4=C[C@@H](OC(=O)Nc5ccc(F)cc5)CC[C@]4(C)[C@H]3CC[C@]12C :: HIGH
CC(=O)[C@@]1(O)CC[C@H]2[C@@H]3C=CC4=CC(=O)CC[C@]4(C)[C@H]3CC[C@@]21C :: MID
CC(=O)C1=CC[C@H]2[C@@H]3CC(=O)C4=C[C@@H](OC(=O)Nc5ccccc5)CC[C@]4(C)[C@H]3CC[C@]12C :: HIGH
CC(=O)C1=CC[C@H]2[C@@H]3CC(=O)C4=C[C@@H](O)CC[C@]4(C)[C@H]3CC[C@]12C :: HIGH
CC(=O)C1=CC[C@H]2[C@@H]3CC(=O)C4=C[C@@H](OC(=O)c5ccc(Cl)cc5)CC[C@]4(C)[C@H]3CC[C@]12C :: LOW

Problem: Any idea which band `CC(=O)[C@@]1(OC(=O)c2ccc(F)cc2)CC[C@H]2[C@@H]3C=CC4=CC(=O)CC[C@]4(C)[C@H]3CC[C@@]21C` is in?
Result: HIGH

Problem: Any idea which band `CC(=O)[C@@]1(OC(=O)c2ccc(Br)cc2)CC[C@H]2[C@@H]3C=CC4=CC(=O)CC[C@]4(C)[C@H]3CC[C@@]21C` is in?
Result: MID

Problem: Any idea which band `CC(=O)[C@@]1(OC(=O)c2ccc(I)cc2)CC[C@H]2[C@@H]3C=CC4=CC(=O)CC[C@]4(C)[C@H]3CC[C@@]21C` is in?
Result: HIGH

Problem: Any idea which band `CC(=O)[C@@]1(OC(=O)Nc2ccc(I)cc2)CC[C@H]2[C@@H]3C=CC4=CC(=O)CC[C@]4(C)[C@H]3CC[C@@]21C` is in?
Result: LOW

Problem: Any idea which band `CC(=O)[C@@]1(OC(=O)Nc2ccc(Br)cc2)CC[C@H]2[C@@H]3C=CC4=CC(=O)CC[C@]4(C)[C@H]3CC[C@@]21C` is in?
Result: LOW

Problem: Any idea which band `CC(=O)[C@@]1(OC(=O)Nc2ccc(F)cc2)CC[C@H]2[C@@H]3C=CC4=CC(=O)CC[C@]4(C)[C@H]3CC[C@@]21C` is in?
Result: LOW

Problem: Any idea which band `CC(=O)C1=CC[C@H]2[C@@H]3CC(=O)C4=C[C@@H](OC(=O)Nc5ccc(Cl)cc5)CC[C@]4(C)[C@H]3CC[C@]12C` is in?
Result: HIGH

Problem: Any idea which band `CC(=O)[C@@]1(OC(=O)c2ccc(Cl)cc2)CC[C@H]2[C@@H]3C=CC4=CC(=O)CC[C@]4(C)[C@H]3CC[C@@]21C` is in?
Result: HIGH
